Cited source for all entries: patent US20200157092A1

Cellular Emax (%) for assorted compounds
subject_of_test: OGA (Homo sapiens, UniProt O60502)
Construct: HEK293 cells inducible for P301L mutant human Tau (isoform 2N4R) were established at Janssen; endogenous in cells; host or cells: HEK293 cells inducible for P301L mutant human Tau (2N4R)
experiment_summary: OGA cellular assay: immunocytochemical detection of O-GlcNAcylated proteins in HEK293 cells inducible for P301L mutant human Tau
Type: cell-based
particulars: HEK293 cells inducible for P301L mutant human Tau, 6 hours incubation; maximum = Thiamet G 200 uM

CC(=O)Nc1ncc(CN2CCC[C@H](c3cc4cc[nH]c4nc3C)C2)s1 (single isomer, unassigned) [Product 75] :: 119.60%
CC(=O)Nc1ncc(CN2CCCC(c3cc(C)nc4ccn(C)c34)C2)s1 (stereo not drawn) [Product 86] :: 100.91%
CC(=O)Nc1ncc(CN2CCCC(c3cc(C)nc4cc[nH]c34)C2)s1 (stereo not drawn) [Product 96] :: 70.38%
CC(=O)Nc1ncc(CN2CCC[C@@H](c3cnc4ccn(C)c4c3)C2)s1 (single isomer, unassigned) [Product 79] :: 101.35%
CC(=O)Nc1ncc(CN2CCC[C@H](c3cnc4cc[nH]c4c3)C2)s1 (single isomer, unassigned) [Product 80] :: 109.88%

# input for lookup
Item: CC(=O)Nc1ncc(CN2CCCC(c3nc(C)cc4cc[nH]c34)C2)s1 (stereo not drawn) [Product 93] | Cellular Emax (%): 87.83%

----------
subject_of_test: OGA (Homo sapiens, UniProt O60502)
Construct: HEK293 cells inducible for P301L mutant human Tau (isoform 2N4R) were established at Janssen; endogenous in cells
experiment_summary: OGA cellular assay: immunocytochemical detection of O-GlcNAcylated proteins in HEK293 cells inducible for P301L mutant human Tau
pEC50: −log10 of the molar value.
measurement_name: pEC50

CC(=O)Nc1ncc(S(=O)(=O)N2CCOC(c3cc(C(F)(F)F)nc4ncnn34)C2)s1 (stereo not drawn) :: < 5.00
CC(c1ccc2c(c1)OCO2)N1CCOC(c2ccnc3ncnn23)C1 (stereo not drawn) :: < 5.00

# input for lookup
Item: CC(=O)Nc1ncc(S(=O)(=O)N2CCCC(c3cc(C(F)F)nc4ncnn34)C2)s1 (racemic) | pEC50: < 5.00

----------
subject_of_test: OGA (Homo sapiens)
Construct: HEK293 cells inducible for P301L mutant human Tau (isoform 2N4R) were established at Janssen; endogenous in cells; host or cells: HEK293 cells inducible for P301L mutant human Tau (2N4R)
Sequence (O60502 1-916): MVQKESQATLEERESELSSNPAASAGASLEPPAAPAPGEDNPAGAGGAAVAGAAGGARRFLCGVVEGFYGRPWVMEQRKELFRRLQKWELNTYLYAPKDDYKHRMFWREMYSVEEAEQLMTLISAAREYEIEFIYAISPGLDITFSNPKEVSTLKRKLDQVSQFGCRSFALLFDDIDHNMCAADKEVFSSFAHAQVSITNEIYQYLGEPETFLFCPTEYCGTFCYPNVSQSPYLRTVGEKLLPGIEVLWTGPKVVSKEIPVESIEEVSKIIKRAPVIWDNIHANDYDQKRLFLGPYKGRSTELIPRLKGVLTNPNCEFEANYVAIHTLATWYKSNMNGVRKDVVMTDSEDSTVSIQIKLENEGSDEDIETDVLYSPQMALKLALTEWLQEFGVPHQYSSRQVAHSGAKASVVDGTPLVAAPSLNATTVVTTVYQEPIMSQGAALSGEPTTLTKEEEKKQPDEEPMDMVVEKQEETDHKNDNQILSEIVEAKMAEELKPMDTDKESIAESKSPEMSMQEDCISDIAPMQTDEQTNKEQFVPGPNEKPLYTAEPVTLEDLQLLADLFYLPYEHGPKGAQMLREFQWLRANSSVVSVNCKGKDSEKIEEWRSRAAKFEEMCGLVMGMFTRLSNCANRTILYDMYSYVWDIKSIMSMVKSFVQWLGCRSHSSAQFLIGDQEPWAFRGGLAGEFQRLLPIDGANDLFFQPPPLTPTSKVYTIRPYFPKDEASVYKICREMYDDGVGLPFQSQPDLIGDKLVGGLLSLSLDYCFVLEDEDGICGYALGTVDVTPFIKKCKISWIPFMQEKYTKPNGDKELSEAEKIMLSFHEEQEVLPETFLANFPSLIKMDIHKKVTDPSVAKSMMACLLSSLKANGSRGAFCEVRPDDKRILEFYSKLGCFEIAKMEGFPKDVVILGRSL
experiment_summary: OGA cellular assay: immunocytochemical detection of O-GlcNAcylated proteins in HEK293 cells inducible for P301L mutant human Tau
Assay type: cell-based
particulars: HEK293, read-out: Cellular Emax (%)
measurement_name: Emax (%)
Respond numerically; units are % and should not be typed.

CC(=O)Nc1ncc(CN2CCCC(c3nc(C)cc4ccn(C)c34)C2)s1 (centres unmarked) :: 57.4

Summary: CC(=O)Nc1ncc(CN2CCC[C@H](c3ccnc4ncnn34)C2)s1 , OGA (Homo sapiens), Emax = 109

----------
EC50 for assorted compounds
subject_of_test: OGA (Homo sapiens)
Construct: HEK293 cells inducible for P301L mutant human Tau (isoform 2N4R) were established at Janssen; endogenous in cells
Sequence (O60502 1-916): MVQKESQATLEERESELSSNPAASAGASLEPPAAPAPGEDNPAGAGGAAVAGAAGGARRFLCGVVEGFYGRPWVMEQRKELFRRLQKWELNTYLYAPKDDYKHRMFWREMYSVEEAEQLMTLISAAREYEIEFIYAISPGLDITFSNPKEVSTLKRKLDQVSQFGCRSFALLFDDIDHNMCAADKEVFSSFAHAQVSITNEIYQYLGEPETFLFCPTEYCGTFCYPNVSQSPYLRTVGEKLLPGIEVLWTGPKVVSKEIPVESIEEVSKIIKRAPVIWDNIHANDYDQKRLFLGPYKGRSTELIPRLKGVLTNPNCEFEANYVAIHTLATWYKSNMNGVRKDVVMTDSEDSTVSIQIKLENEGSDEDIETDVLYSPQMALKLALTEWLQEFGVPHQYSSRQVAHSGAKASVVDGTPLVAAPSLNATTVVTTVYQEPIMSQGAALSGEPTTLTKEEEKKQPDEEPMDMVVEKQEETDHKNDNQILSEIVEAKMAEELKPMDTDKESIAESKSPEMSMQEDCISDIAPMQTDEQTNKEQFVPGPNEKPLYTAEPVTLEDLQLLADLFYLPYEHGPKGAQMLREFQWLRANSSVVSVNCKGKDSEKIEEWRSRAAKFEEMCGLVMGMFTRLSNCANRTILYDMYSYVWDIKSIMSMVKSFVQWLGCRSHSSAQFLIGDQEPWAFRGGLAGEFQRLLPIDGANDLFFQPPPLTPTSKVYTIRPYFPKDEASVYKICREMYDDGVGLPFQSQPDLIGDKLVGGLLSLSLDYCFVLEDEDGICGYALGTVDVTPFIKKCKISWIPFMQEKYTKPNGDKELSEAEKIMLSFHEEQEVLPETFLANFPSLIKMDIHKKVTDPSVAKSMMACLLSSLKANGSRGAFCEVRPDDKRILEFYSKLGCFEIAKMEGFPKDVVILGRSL
experiment_summary: OGA cellular assay: immunocytochemical detection of O-GlcNAcylated proteins in HEK293 cells inducible for P301L mutant human Tau
Respond numerically; units are nM and should not be typed.

CC(=O)Nc1ncc(CN2CCCC(c3cc(C(F)F)nc4nccn34)C2)s1 (centres unmarked) [Product 14] :: 70.8
CC(=O)Nc1ncc(CN2CCC(Cc3c(F)c(C)nc4ncnn34)C2)s1 (centres unmarked) [Product 49] :: 25.7
CC(=O)Nc1ncc(CN2CCCC(c3cc(C)nc4nccn34)C2)s1 (centres unmarked) [Product 17] :: 55
CC(=O)Nc1ncc(CN2CCCC(Cc3cc(C)nc4ncnn34)C2)s1 (centres unmarked) [Product 46] :: 14.8

Item: CC(=O)Nc1ncc(CN2CCCC(c3ccnc4nccn34)C2)s1 (racemic) [Product 10] | EC50: 209

----------
IC50 for assorted molecules
subject_of_test: recombinant human Meningioma Expressed Antigen 5 (MGEA5), also referred to as O-GlcNAcase (OGA) (Homo sapiens)
Construct: Full length OGA enzyme was purchased at OriGene (cat # TP322411); purchased OriGene TP322411
experiment_summary: OGA biochemical assay: inhibition of FM-GlcNAc hydrolysis, fluorescence; protocol A (10 nM OGA, 1 h) or protocol B (2 nM OGA, 6 h)
particulars: Enzymatic protocol A (10 nM OGA, 1 h); read-out: Enzymatic hOGA; pIC50 (converted)
Respond numerically; units are nM and should not be typed.

CC(=O)Nc1ncc(S(=O)(=O)N2CCC3(CC3)C(c3cc(C(F)F)nc4ncnn34)C2)s1 (stereo not drawn) :: 692
CC(=O)Nc1ncc(S(=O)(=O)N2CCO[C@H](c3ccnc4ncnn34)C2)s1 :: 14.5

Item: CC(=O)Nc1ncc(S(=O)(=O)N2CCOC(c3cc(C)nc4ncnn34)C2)s1 (racemic) | IC50: 9.12

----------
subject_of_test: OGA (Homo sapiens, UniProt O60502)
Construct: HEK293 cells inducible for P301L mutant human Tau (isoform 2N4R) were established at Janssen; endogenous in cells; host or cells: HEK293 cells inducible for P301L mutant human Tau (2N4R)
experiment_summary: OGA cellular assay: immunocytochemical detection of O-GlcNAcylated proteins in HEK293 cells inducible for P301L mutant human Tau
Assay type: cell-based
particulars: HEK293, read-out: Cellular Emax (%)
Emax for assorted compounds
Respond numerically; units are % and should not be typed.

Past entries and their recorded results:
CC(=O)Nc1ncc(S(=O)(=O)N2CCO[C@H](c3ccnc4ncnn34)C2)s1 :: 21.8
CC(=O)Nc1ncc(CN2CCCC(c3ccc4c(ccn4C)n3)C2)s1 (stereo not drawn) :: 85.7
CC(=O)Nc1ncc(CN2CCCC(c3ccnc4nccn34)C2)s1 (racemic) :: 99
CC(=O)Nc1ncc(CN2CCCC(c3ccc4ccn(C)c4n3)C2)s1 (stereo not drawn) :: 87.2

Item: CC(=O)Nc1ncc(CN2CC[C@H](Cc3cccc4nccn34)C2)s1 | Emax: 82

Item: c1cc(CC2CCN(Cc3ccc4nccnc4c3)C2)n2ccnc2c1 (stereo not drawn) | Emax: 4.1
